Measured GI50 values are reported for all entries that follow.
- Test system: HT-29
- ASSAY_NAME: NCI tumour cell line growth inhibition, 48 h
Calls of active or inactive are those of the source. No stated cut-off is given here; in the data, active = GI50 up to about 1.1 µM and inactive = higher.

Solved cases (4 shown):
compound="COc1ccc(Cc2nn(C3OC(COC(C)=O)C(OC(C)=O)C(OC(C)=O)C3OC(C)=O)c(=S)n(-c3ccc(OC)cc3)c2=O)cc1 (stereo not given)" observed_measurement="> 100 µM (inactive)"
compound="CC(C(O)c1ccccc1)N(C)/N=N/c1nc2c([nH]1)c(=O)n(C)c(=O)n2C (stereo not given)" observed_measurement="39.6 µM (inactive)"
compound="C=C1CCC2CC1C(C(=O)c1c[nH]c3ccccc13)=NC2(C)C (stereo not given)" observed_measurement="> 100 µM (inactive)"
compound=N=C(N)NS(=O)(=O)c1ccc(NNC(=O)c2cccc3c(O)c4ccccc4nc23)cc1 observed_measurement="21.6 µM (inactive)"

// moving on: another record for GI50
# input Under HT-29: GI50 value of CCCCNC(=S)Nc1nc(C(=O)NNC(=O)c2ccccc2)cs1 ?
# output 24 µM (inactive)

----------
- System: A549
- ASSAY_NAME: NCI tumour cell line growth inhibition, 48 h
Activity calls are given as the source filed them. Cut-off read from the data, not from the text of the source: active = GI50 up to about 1.1 µM and inactive = higher.
The reply should name one outcome from y = active, n = inactive

Please review the following examples before continuing.
compound=CO[C@@H]1C[C@H]2[C@@H]3CC[C@H]([C@@H](C)CO)[C@@]3(C)CC[C@@H]2[C@@]2(C)CC[C@H]3C[C@]312 class_assignment=n
compound=CCOC(=O)Oc1cc2ccsc2c2c1c1ccccc1n2C(=O)OCC class_assignment=n
compound=c1cc(-c2sc(-c3ccncc3)c(-c3ccncc3)c2-c2ccncc2)ccn1 class_assignment=n
compound=NC(=S)NNC(=O)/C(=C/c1ccc(/C=C(\NC(=O)c2ccccc2)C(=O)NNC(N)=S)cc1)NC(=O)c1ccccc1 class_assignment=n
compound=c1ccc2c3c(ccc2c1)-c1[nH]ncc1CCO3 class_assignment=n
compound=CCN(c1ccccc1)[C@H]1C(=O)N(c2ccc([N+](=O)[O-])cc2)[C@H]1c1ccc(OC)cc1 class_assignment=n
compound="COc1ccc(CN(Cc2ccc(OC)cc2)C(=O)CC2(O)C=CCC2)cc1 (stereo unspecified)" class_assignment=n
compound=CCOC(=O)c1nc2cc(C(F)(F)F)ccc2nc1Oc1ccc(C(=O)OC)cc1 class_assignment=n
compound=COc1ccc(CNc2cc(OC)cc(OC)c2)cc1 class_assignment=n
compound="COC(=O)c1cccc(N[C@@H]2c3cc4c(cc3C(c3cc(OC)c(O)c(OC)c3)[C@H]3C(=O)OCC32)OCO4)c1 (stereo partly specified)" class_assignment=y

Then there is this compound:
# input Could you kindly confirm the outcome this assay logged for CC1(O)CCC2(C)C(=O)C1(C)CCC21OCCO1 (stereo unspecified) ?
# output n

----------
Measured GI50 values are reported for all entries that follow.
- Tested on: M14
- ASSAY_NAME: NCI tumour cell line growth inhibition, 48 h
Activity calls are given as the source filed them. Rule as the data show it: active = GI50 up to about 1.1 µM and inactive = higher.

compound=CCOC(=O)c1c(-c2ccccc2)nc2ccccc2c1O observed_measurement="> 100 µM (inactive)"
compound=CCCCCCCCCCCCCC/C(C(=O)O)=C(\C)C(=O)O observed_measurement="> 100 µM (inactive)"
compound=C[C@]12CC[C@H]3[C@@H](CC=C4C[C@@H](N5CCCC5)CC[C@@]43C)[C@@H]1C[C@H](N1CCCCC1)[C@@H]2O observed_measurement="20.3 µM (inactive)"
compound=N=C(N)NS(=O)(=O)c1ccc(NNC(=O)c2cccc3c(O)c4ccccc4nc23)cc1 observed_measurement="17.4 µM (inactive)"
compound=O=C1N[C@H]2c3c(Cl)sc(Cl)c3C(=O)[C@H]2O1 observed_measurement="9.82 µM (inactive)"
compound="CC(=O)OC(C)(C)CCC(=O)[C@](C)(O)[C@H]1[C@H](O)C[C@@]2(C)[C@@H]3CCc4c(cc(OC5OC(CO)C(O)C(O)C5O)c(O)c4C)C3(C)C(=O)C[C@]12C (stereo partly drawn)" observed_measurement="> 100 µM (inactive)"

# input Under M14: GI50 value of c1cc(-c2ccc(-c3ccc(-c4ccc(-c5cccc6nsnc56)[nH]4)c4nsnc34)[nH]2)c2nsnc2c1 ?
# output > 100 µM (inactive)

# input Under M14: GI50 value of CCOP1(=O)C=CC(Cl)=C(C)C1 (stereo not drawn) ?
# output 14.7 µM (inactive)

----------
- Tested on: A498
- ASSAY_NAME: NCI tumour cell line growth inhibition, 48 h
The source made the active and inactive calls. No stated cut-off is given here; in the data, active = GI50 up to about 1.1 µM and inactive = higher.
Measured GI50 values are reported for all entries that follow.

Solved cases (6 shown):
compound=N#CCCN(c1ccc(C=O)cc1)S(=O)(=O)c1ccccc1 target_under_test=A498 observed_measurement="> 100 µM (inactive)"
compound="COc1ccc(Cc2nn(C3OC(COC(C)=O)C(OC(C)=O)C(OC(C)=O)C3OC(C)=O)c(=S)n(-c3ccc(OC)cc3)c2=O)cc1 (configuration not stated)" target_under_test=A498 observed_measurement="> 100 µM (inactive)"
compound=Cc1ccc2nc3[nH]nc(N)c3nc2c1 target_under_test=A498 observed_measurement="85.3 µM (inactive)"
compound=Cc1c(/C=N/NC(=S)N2CCCCC2)c(=O)n(-c2ccccc2)n1C target_under_test=A498 observed_measurement="24.3 µM (inactive)"
compound="CCCCCCCC(CC(=O)NC(CO)C(=O)NC(CO)CC(C)C)OC(=O)CC(CCCCCCC)OC(=O)CC(CCCCCCC)OC1OC(C)C(O)C(OC2OC(C)C(O)C(O)C2O)C1O (configuration not stated)" target_under_test=A498 observed_measurement="18.7 µM (inactive)"
compound=Cc1cc(NS(=O)(=O)c2ccc(NC(NC(=O)OC(C)C)(C(F)(F)F)C(F)(F)F)cc2)nc(C)n1 target_under_test=A498 observed_measurement="> 100 µM (inactive)"

// moving on: another record for GI50
# input Suppose we examine the compound CCOC(=O)C1=CC(C)(C(=O)OCC)Nc2c(nc(SC)[nH]c2=O)N1 (configuration not stated) ; what GI50 value has been reported?
# output > 10 µM (inactive)

----------
- Test system: SW-620
- ASSAY_NAME: NCI tumour cell line growth inhibition, 48 h
The source made the active and inactive calls. Rule as the data show it: active = GI50 up to about 1.1 µM and inactive = higher.
The reply should name one outcome from active, inactive

Please review the following examples before continuing.
compound=CCSC(SCC)=C1C(=O)N(c2ccccc2)N=C1C target_under_test=SW-620 class_assignment=inactive
compound="C=C1C(=O)O[C@H]2/C=C(/C)C3=CC(=O)[C@@](C)(C[C@@H](OC(=O)/C(C)=C\\C)C12)O3 (some centres undefined)" target_under_test=SW-620 class_assignment=active
compound="CN(C)N1C(=C(C#N)C#N)C(c2ccccc2)CC1C#N (centres undefined)" target_under_test=SW-620 class_assignment=inactive

Then there is this compound:
# input Could you kindly confirm the outcome this assay logged for O=C(NN=C1NCCN1)c1ccco1 ?
# output inactive

----------
- System: SK-OV-3
- ASSAY_NAME: NCI tumour cell line growth inhibition, 48 h
The source made the active and inactive calls. Cut-off read from the data, not from the text of the source: active = GI50 up to about 1.1 µM and inactive = higher.
The reply should name one outcome from active, inactive

compound=CC(C)[C@](O)(C(=O)OCC1=CCN2CC[C@@H](O)[C@@H]12)[C@H](C)O class_assignment=inactive
compound=CC(=O)NS(=O)(=O)c1ccc(NCc2cccc3c(=O)c4ccc(Cl)cc4oc23)cc1 class_assignment=inactive
compound="CC(CO)C1C[C@H](O)[C@@]2(C)CC(=O)C=C(CO)[C@@H]2C1 (some centres undefined)" class_assignment=inactive
compound="CN(C)c1ncnc2c1ncn2C1C=CC(COS(N)(=O)=O)C1 (centres undefined)" class_assignment=inactive
compound="CCC(C)C(N)C(=O)NC(CC(N)=O)C(=O)NC(CC(C)C)C(=O)NC(CCCCN)C(=O)NC(C)C(=O)NC(CC(C)C)C(=O)NC(C)C(=O)NC(C)C(=O)NC(CC(C)C)C(=O)NC(C)C(=O)NC(CCCCN)C(=O)NC(CCCCN)C(=O)NC(C(=O)NC(CC(C)C)C(N)=O)C(C)CC (centres undefined)" class_assignment=inactive
compound="O=C(Nc1ccc(C(F)(F)F)cc1[N+](=O)[O-])C(=O)C(C(=O)c1ccc2ccccc2c1)C1OC(=O)c2ccccc21 (centres undefined)" class_assignment=inactive

Then there is this compound:
# input Could you kindly confirm the outcome this assay logged for CC(C(O)c1ccccc1)N(C)/N=N/c1nc2c([nH]1)c(=O)n(C)c(=O)n2C (centres undefined) ?
# output inactive

----------
Measured GI50 values are reported for all entries that follow.
- Test system: NCI-H226
- ASSAY_NAME: NCI tumour cell line growth inhibition, 48 h
The source made the active and inactive calls. No stated cut-off is given here; in the data, active = GI50 up to about 1.1 µM and inactive = higher.

compound="C=C1C(C)C2C(Cc3ccccc3)NC(=O)C23C(OC(C)=O)C=CC(C)(O)C(=O)C(C)C/C=C/C3C1O (stereo not given)" observed_measurement="3.85 µM (inactive)"
compound="CC1=C(C(=O)Nc2cc(F)c(F)cc2F)C(c2cccc([N+](=O)[O-])c2)C(C(=O)Nc2ccccc2C(F)(F)F)=C(C)N1 (stereo not given)" observed_measurement="21.3 µM (inactive)"

// moving on: another record for GI50
# input Suppose we examine the compound CCCC(OCC)(OCC)OCC ; what GI50 value has been reported?
# output > 100 µM (inactive)

Every entry's value here was drawn from ChEMBL document CHEMBL1201862.
